Hey, just so you know, these numbers are from patent US20090299049A1.

Assay: Optical properties: UV-visible spectra, fluorescence excitation and emission
Assay type: physicochemical
Settings: fluorescence emission wavelength
Assay Endpoint: λem (nm)
Please reply with the bare figure in nm and do not write the unit itself.

For orientation, consider the following solved cases.
- Mol Smiles: "CCN(CC)c1ccc(C#Cc2nc3c(=O)[nH]c(N)nc3n2[C@@H]2O[C@H](CO)[C@@H](O)[C@H]2O)cc1"
  Quantity Unit: "nm"
  Result Number: 502
- Mol Smiles: "COc1ccc(C#Cc2nc3c(=O)[nH]c(N)nc3n2[C@@H]2O[C@H](CO)[C@@H](O)[C@H]2O)cc1"
  Quantity Unit: "nm"
  Result Number: 402
- Mol Smiles: "Cc1ccc(C#Cc2nc3c(N)ncnc3n2[C@@H]2O[C@H](CO)[C@@H](O)[C@H]2O)cc1"
  Quantity Unit: "nm"
  Result Number: 393
- Mol Smiles: "Nc1nc2c(nc(C#Cc3ccccc3)n2[C@@H]2O[C@H](CO)[C@@H](O)[C@H]2O)c(=O)[nH]1"
  Quantity Unit: "nm"
  Result Number: 438
- Mol Smiles: "CC(=O)c1ccc(C#Cc2nc3c(N)ncnc3n2[C@@H]2O[C@H](CO)[C@@H](O)[C@H]2O)cc1"
  Quantity Unit: "nm"
  Result Number: 493
- Mol Smiles: "Nc1nc2c(nc(C#Cc3cccc4ccccc34)n2[C@@H]2O[C@H](CO)[C@@H](O)[C@H]2O)c(=O)[nH]1"
  Quantity Unit: "nm"
  Result Number: 465

Query molecule follows.
Q: Report λem for CSc1ccc(C#Cc2nc3c(N)ncnc3n2[C@@H]2O[C@H](CO)[C@@H](O)[C@H]2O)cc1
Result: 396
